Target: Pea leaf FNR (Lathyrus oleraceus, UniProt P10933)
Sequence (P10933 53-360): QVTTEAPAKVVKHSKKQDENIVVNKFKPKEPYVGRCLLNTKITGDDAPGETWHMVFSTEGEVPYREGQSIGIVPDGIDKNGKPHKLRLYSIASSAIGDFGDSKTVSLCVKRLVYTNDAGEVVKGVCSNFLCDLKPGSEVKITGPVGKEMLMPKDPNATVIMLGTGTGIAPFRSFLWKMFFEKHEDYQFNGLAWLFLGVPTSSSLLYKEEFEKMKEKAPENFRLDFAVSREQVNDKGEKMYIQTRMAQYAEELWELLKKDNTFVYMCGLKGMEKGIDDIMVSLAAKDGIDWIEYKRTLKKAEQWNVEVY
parameter: Kd (µM)
Answer with a number only, understood to be in µM.

Lab note: NC(=O)c1ccc[n+]([C@@H]2O[C@H](COP(=O)(O)OP(=O)(O)OC[C@H]3O[C@@H](n4cnc5c(N)ncnc54)[C@H](OP(=O)(O)O)[C@@H]3O)[C@@H](O)[C@H]2O)c1 gave Kd of 11.3

###

Molecular target: LepFNR (Leptospira interrogans, UniProt Q8EY89)
Construct: gene LA_4327; recombinant in E. coli BL21(DE3)pLysS, thioredoxin fusion (pET32JO-LepFNR) cut off by thrombin; monomeric FAD flavoprotein
Sequence (Q8EY89 entry or part of it): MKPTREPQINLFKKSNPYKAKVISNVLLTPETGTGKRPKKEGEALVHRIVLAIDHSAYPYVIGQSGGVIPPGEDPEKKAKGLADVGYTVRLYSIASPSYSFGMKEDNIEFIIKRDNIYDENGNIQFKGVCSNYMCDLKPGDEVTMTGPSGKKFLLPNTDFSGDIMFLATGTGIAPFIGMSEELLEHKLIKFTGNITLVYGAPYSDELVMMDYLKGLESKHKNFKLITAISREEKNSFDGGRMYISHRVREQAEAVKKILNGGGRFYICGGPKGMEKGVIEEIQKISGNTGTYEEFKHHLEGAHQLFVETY
Experiment: difference absorption spectroscopy titration
Format: binding
parameter: pKd
The quantity pKd is defined as the negative base-10 logarithm of the molar concentration.

For NC(=O)c1ccc[n+]([C@@H]2O[C@H](COP(=O)(O)OP(=O)(O)OC[C@H]3O[C@@H](n4cnc5c(N)ncnc54)[C@H](OP(=O)(O)O)[C@@H]3O)[C@@H](O)[C@H]2O)c1 [NADP^+] the compound record lists pKd as 4.88
